- experiment-notes: viability loss with induced miR-34 in A549 – imaging, A549 dox-inducible miR-34, nuclei and caspase counts, primary screen (AID 1347080); also: test concentration not given here
- condition-context: A549 miR-34 inducible, Hoechst nuclei count, 48 h; measured here: relative caspase fold change +Dox/-Dox
# fold change listing for each entry below

- C=C1CCC(O)CC1=CC=C1CCC[C@]2(C)C(C(C)CCCC(C)C)CC[C@@H]12 (some centres undefined): 0.845
- CC[C@H]1OC(=O)[C@H](C)[C@@H](O[C@H]2C[C@@](C)(OC)[C@@H](O)[C@H](C)O2)[C@H](C)[C@@H](O[C@@H]2O[C@H](C)C[C@H](N(C)C)[C@H]2O)[C@](C)(O)C[C@@H](C)/C(=N/OCOCCOC)[C@H](C)[C@@H](O)[C@]1(C)O: 1.04
- CC(N)(C(=O)O)c1ccc(C(=O)O)cc1 (centres undefined): 1.27

Input line: Which value of fold change has been reported for `OCCn1cc(-c2ccc3c(c2)CCC3=NO)c(-c2ccncc2)n1` in the records?
Output line: 0.852

All values here come from PubChem BioAssay.
